target: PAF receptor (human platelet plasma membrane) (Homo sapiens); construct: Platelet concentrates are obtained from a hospital blood bank; membrane fraction; experiment: Inhibition of [3H]-PAF receptor binding to human platelet plasma membrane; conditions: [3H]-PAF 0.5 nM; 100 μg membrane fraction; 0° C.; 1 hour incubation; pH 7.0
Sequence (P25105 whole entry): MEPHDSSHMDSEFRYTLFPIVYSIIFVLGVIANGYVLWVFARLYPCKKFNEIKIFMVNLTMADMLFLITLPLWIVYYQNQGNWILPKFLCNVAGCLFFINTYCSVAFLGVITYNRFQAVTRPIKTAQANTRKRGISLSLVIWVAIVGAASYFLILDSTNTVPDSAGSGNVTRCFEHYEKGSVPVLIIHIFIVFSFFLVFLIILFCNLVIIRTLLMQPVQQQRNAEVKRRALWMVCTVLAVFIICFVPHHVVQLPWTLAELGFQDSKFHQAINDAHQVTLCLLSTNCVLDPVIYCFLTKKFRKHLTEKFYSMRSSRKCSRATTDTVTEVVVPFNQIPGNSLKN
pIC50: −log10 of the molar value.
Returns Y if the recorded pIC50 is greater than or equal to 8, and N otherwise.

input: Assess whether reported pIC50 for `CCOC(=O)[C@H](CC(C)C)N(C)S(=O)(=O)c1ccc(Cn2ccc3ncnc-3c2)cc1` sits at 8 or higher.
output: Y

input: Please check the record `CCOC(=O)[C@H](CC(C)C)N(C)S(=O)(=O)c1ccc(Cn2ccc3nc(C)nc-3c2)c(Cl)c1` and state if its pIC50 is at or above 8.
output: Y

input: Could you verify whether the entry `Cc1nc2ccn(Cc3ccc(S(=O)(=O)N(C)[C@H](CO[Si](c4ccccc4)(c4ccccc4)C(C)(C)C)CC(C)C)cc3)cc-2n1` shows pIC50 of no less than 8?
output: N

====

Each entry below lists one item and its recorded IC50 value.
molecular target: PAF receptor (human platelet plasma membrane) (Homo sapiens); construct: Platelet concentrates are obtained from a hospital blood bank; from tissue; host or cells: human platelets (concentrates from a hospital blood bank), lysed by freeze-thaw; membrane fraction; assay: Inhibition of [3H]-PAF receptor binding to human platelet plasma membrane; conditions: [3H]-PAF 0.5 nM; 100 μg membrane fraction; 0° C.; 1 hour incubation; pH 7.0
Write the answer as a number in nM, unit excluded.

Worked cases, answers included:
compound: COC(C)C(C(C)C)N(C)S(=O)(=O)c1ccc(Cn2ccc3nc(C)nc-3c2)cc1 (stereo not shown)
assayResult: 15
--
compound: CCOC(=O)CN([C@@H](CC(C)C)C(=O)OCC)S(=O)(=O)c1ccc(Cn2ccc3nc(C)nc-3c2)cc1
assayResult: 10
--
compound: CCOC(=O)[C@H](CC(C)C)N(CC(=O)OC(C)(C)C)S(=O)(=O)c1ccc(Cn2ccc3nc(C)nc-3c2)cc1
assayResult: 15

Turning to the following compound.
input: Return IC50 (reported value) for this compound: `C=CCOC(=O)[C@H]([C@@H](C)CC)N(C)S(=O)(=O)c1ccc(Cn2ccc3nc(C)nc-3c2)cc1`
output: 10

// provenance: patent US5446032A
